- study-system: Tay1-FG (Ustilago maydis)
- Sequence: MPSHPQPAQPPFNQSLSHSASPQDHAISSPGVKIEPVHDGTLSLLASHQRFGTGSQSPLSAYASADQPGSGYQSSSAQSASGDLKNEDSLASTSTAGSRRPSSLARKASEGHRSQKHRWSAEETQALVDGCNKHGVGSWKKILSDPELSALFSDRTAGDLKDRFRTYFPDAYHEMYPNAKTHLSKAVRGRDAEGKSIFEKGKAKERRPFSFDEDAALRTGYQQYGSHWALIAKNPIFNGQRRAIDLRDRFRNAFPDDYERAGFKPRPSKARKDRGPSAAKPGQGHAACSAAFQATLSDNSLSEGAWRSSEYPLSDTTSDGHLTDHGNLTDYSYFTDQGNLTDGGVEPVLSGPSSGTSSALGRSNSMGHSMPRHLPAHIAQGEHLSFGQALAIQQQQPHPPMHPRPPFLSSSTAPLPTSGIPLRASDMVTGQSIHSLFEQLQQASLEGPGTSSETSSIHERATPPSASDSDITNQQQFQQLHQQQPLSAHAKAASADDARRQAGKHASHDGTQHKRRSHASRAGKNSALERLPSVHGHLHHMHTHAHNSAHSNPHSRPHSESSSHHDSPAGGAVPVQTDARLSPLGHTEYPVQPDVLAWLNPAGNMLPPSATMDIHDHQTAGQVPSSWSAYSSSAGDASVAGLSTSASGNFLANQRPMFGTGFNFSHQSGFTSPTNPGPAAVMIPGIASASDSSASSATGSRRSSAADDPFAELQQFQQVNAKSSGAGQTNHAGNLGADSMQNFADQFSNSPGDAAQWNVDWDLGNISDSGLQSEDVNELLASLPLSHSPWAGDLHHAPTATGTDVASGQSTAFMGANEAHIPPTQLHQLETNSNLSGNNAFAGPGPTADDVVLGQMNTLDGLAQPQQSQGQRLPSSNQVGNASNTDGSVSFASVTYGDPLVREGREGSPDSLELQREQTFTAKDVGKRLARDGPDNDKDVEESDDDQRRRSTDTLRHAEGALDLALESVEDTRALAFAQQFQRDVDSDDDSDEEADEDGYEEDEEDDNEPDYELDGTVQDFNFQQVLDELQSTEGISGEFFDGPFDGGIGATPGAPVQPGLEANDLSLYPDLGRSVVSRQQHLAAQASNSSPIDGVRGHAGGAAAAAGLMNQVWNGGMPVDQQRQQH
- assay-name: EMSA
- condition-parameters: 25 mM HEPES-KOH pH 7.5, 5% glycerol, 3 mM MgCl2, 0.1 mM EDTA, 1 mM DTT, 0.5 µg/µl BSA, 1-10 nM 32P probe, 22 °C 15 min; 6% native PAGE in 0.2x TBE
quantity-measured: Kd (nM)
Numbers only, in nM.

Consider the sequence TTAGGGTTAGGGTTAGGGTTAGGG (double strand) [TTAGGG4 ds] tested on Tay1-FG (Ustilago maydis); state its Kd. 27
